Target: T1, human programmed cell death protein 1 (hPD-1) C93S (aa 24-167) (Homo sapiens, UniProt Q15116, C93S)
T1 construct: made as a fusion with a TEV site and human Fc; the Fc was cut off with TEV protease; source: Expi293F, purified (Protein A, TEV cleavage of Fc, SEC; monomer fractions); not shown: Fc (human), C-terminal, cleaved
T1 sequence (Q15116 24-167 C93S): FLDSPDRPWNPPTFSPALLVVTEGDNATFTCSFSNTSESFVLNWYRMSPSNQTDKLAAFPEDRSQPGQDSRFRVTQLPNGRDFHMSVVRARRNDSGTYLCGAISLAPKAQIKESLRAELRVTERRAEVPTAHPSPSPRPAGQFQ
Test: SPR; Carterra LSA; Fab from the ammonium sulfate precipitate of the culture supernatant immobilised on a NiHC200M chip; hPD-1 (1-1024 nM) or mPD-1-Fc (4-1024 nM) as analyte, fourfold dilution series, no regeneration; HBS-EP pH 7.4, 25 °C; medians over the spots of a construct, KD = koff/kon
Details: one partner purified

| binder | koff |
| --- | --- |
| toripalimab Fab L.T102A (Fab, V domains shown, as the heavy chain of Sm3; light chain of Sm3 with this change; numbers count from the chain's first residue; source: Brevibacillus, culture supernatant (ammonium sulfate precipitate); not shown: 6xHis, C-terminal, kept; 6xHN, C-terminal, kept) VH: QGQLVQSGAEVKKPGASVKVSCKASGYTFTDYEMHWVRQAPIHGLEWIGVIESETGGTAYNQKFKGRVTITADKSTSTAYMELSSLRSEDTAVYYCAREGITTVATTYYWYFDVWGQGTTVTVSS VL: DVVMTQSPLSLPVTLGQPASISCRSSQSIVHSNGNTYLEWYLQKPGQSPQLLIYKVSNRFSGVPDRFSGSGSGTDFTLKISRVEAEDVGVYYCFQGSHVPLAFGQGTKLEIK | < 1e-05 s⁻¹ |
| toripalimab Fab L.L101V (Fab, V domains shown, as the heavy chain of Sm3; light chain of Sm3 with this change; numbers count from the chain's first residue; source: Brevibacillus, culture supernatant (ammonium sulfate precipitate); not shown: 6xHis, C-terminal, kept; 6xHN, C-terminal, kept) VH: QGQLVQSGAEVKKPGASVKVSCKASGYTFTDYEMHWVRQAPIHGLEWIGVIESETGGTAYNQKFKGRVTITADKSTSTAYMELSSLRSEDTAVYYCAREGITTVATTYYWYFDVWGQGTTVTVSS VL: DVVMTQSPLSLPVTLGQPASISCRSSQSIVHSNGNTYLEWYLQKPGQSPQLLIYKVSNRFSGVPDRFSGSGSGTDFTLKISRVEAEDVGVYYCFQGSHVPVTFGQGTKLEIK | 1.35e-05 s⁻¹ |
| toripalimab Fab H.W110Y (Fab, V domains shown, heavy chain of Sm3 with this change; numbers count from the chain's first residue; as the light chain of Sm3; source: Brevibacillus, culture supernatant (ammonium sulfate precipitate); not shown: 6xHis, C-terminal, kept; 6xHN, C-terminal, kept) VH: QGQLVQSGAEVKKPGASVKVSCKASGYTFTDYEMHWVRQAPIHGLEWIGVIESETGGTAYNQKFKGRVTITADKSTSTAYMELSSLRSEDTAVYYCAREGITTVATTYYYYFDVWGQGTTVTVSS VL: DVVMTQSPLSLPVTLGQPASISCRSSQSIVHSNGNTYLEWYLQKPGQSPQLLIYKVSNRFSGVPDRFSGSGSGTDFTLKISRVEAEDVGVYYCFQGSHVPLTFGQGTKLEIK | < 1e-05 s⁻¹ |
